Test: Hemolytic activity in human RBC at 100 uM measured after 40 mins by absorbance based assay relative to control
Type: toxicity, cell-based, Erythrocyte
Settings: human red blood cells, read-out: Activity
For each record, write down the corresponding hemolysis at 40 min, 100 µM.
Give bare numbers, in %.

Take a look at these entries with their results.
[[record]]
substance = "H-KVKVKVKVKV-OH"
value_observed = 18

[[record]]
substance = "H-KVKVKVKVKVKVKV-OH"
value_observed = 80

[[record]]
substance = "H-RLRLRLRLRLRL-OH"
value_observed = 17


Here are 5 substances. What values of hemolysis at 40 min, 100 µM were reported for them?
1. H-KVKVKVKVKVKV-OH
2. H-RLVRLVRLVRLVRLV-OH
3. H-RLRLRLRLRLRLRL-OH
4. H-LGRLLGRLLGRLLGRL-OH
5. H-KVLKVLKVLKVLKVL-OH

Ans.
1: 42; 2: 20; 3: 20; 4: 95; 5: 20

###

System: Escherichia coli
Experiment: Bactericidal activity against Escherichia coli ATCC 25922 incubated for 16 to 18 hrs
Type: functional
Settings: time 16-18 hrs
MBC vs 4 µM: less than gives class 1; not less than gives class 0.

Qu. MBC strictly < 4 µM for this substance? H-RLRLRLRLRL-OH
Ans. class 0

Qu. Now give it for H-RLVRLVRLVRLV-OH too.
Ans. class 0

Qu. Now give it for H-LGRLLGRLLGRL-OH too.
Ans. class 0

Qu. Now give it for H-VLGRVLGRVLGRVLGR-OH too.
Ans. class 1

Qu. Now give it for H-KVLKVLKVLKVL-OH too.
Ans. class 1

Qu. Now give it for H-GRLVGRLVGRLVGRLV-OH too.
Ans. class 1

Qu. Now give it for H-GRLGRLGRLGRLGRL-OH too.
Ans. class 0

Qu. Now give it for H-RLVRLVRLVRLVRLV-OH too.
Ans. class 0

###

Test system: Staphylococcus aureus
Assay: Bactericidal activity against Staphylococcus aureus ATCC 25923 incubated for 16 to 18 hrs
Format: functional
Conditions: time 16-18 hrs
parameter: log10 of MBC (log10 of the value in µM)
In our notation, the value equals log10 of MBC in µM.

Take a look at these entries with their results.
[[record]]
substance = "H-RLRLRLRLRL-OH"
value_observed = 0.96

[[record]]
substance = "H-RLVRLVRLVRLVRLV-OH"
value_observed = 0.53

[[record]]
substance = "H-VLGRVLGRVLGRVLGR-OH"
value_observed = 0.56

[[record]]
substance = "H-GRLVGRLVGRLVGRLV-OH"
value_observed = 0.26

[[record]]
substance = "H-LGRLLGRLLGRL-OH"
value_observed = 1.26


Here are 3 substances. What values of log10 of MBC were reported for them?
1. H-KVLGKVLGKVLGKVLG-OH
2. H-GRLGRLGRLGRLGRL-OH
3. H-RLVRLVRLVRLV-OH

Ans.
1. 1.10
2. 0.88
3. 0.92

Qu. Would you mind telling me what log10 of MBC value was observed for H-KVLKVLKVLKVL-OH ?
Ans. 1.26

###

Experiment: Retention time of compound by RP-HPLC method
Assay type: physicochemical
For each record, write down the corresponding Retention_time.
Answers are plain numbers, in min.

Take a look at these entries with their results.
[[record]]
substance = "H-RLRLRLRLRL-OH"
units_text = "min"
value_observed = 15.27

[[record]]
substance = "H-GRLVGRLVGRLV-OH"
units_text = "min"
value_observed = 13.4

[[record]]
substance = "H-VLGRLVLGRLVLGRL-OH"
units_text = "min"
value_observed = 19.07

[[record]]
substance = "H-LGRLVLGRLV-OH"
units_text = "min"
value_observed = 16.21

[[record]]
substance = "H-KVLGKVLGKVLGKVLG-OH"
units_text = "min"
value_observed = 20.12

[[record]]
substance = "H-VLGRVLGRVLGRVLGR-OH"
units_text = "min"
value_observed = 20.54

[[record]]
substance = "H-RLVRLVRLVRLVRLV-OH"
units_text = "min"
value_observed = 20.78

[[record]]
substance = "H-GRLGRLGRLGRL-OH"
units_text = "min"
value_observed = 20.87


Here are 5 substances. What values of Retention_time were reported for them?
1. H-KVLGKVLGKVLG-OH
2. H-GRLVGRLVGRLVGRLV-OH
3. H-LGRLVLGRLVLGRLV-OH
4. H-VLGRLVVLGRLV-OH
5. H-KVLGRKVLGRKVLGR-OH

Ans.
1: 15.26; 2: 20.24; 3: 18.77; 4: 17.91; 5: 11.73

Where these numbers come from: ChEMBL document CHEMBL6087460
